# experiment summary: gradient 5% acetonitrile 3 min, to 50% in 2 min, to 85% in 15 min, held 3 min, 100 µL/min
# assay setup: column: Zorbax Extend-C18 2.1 x 50 mm; eluents: water / acetonitrile, 0.1% formic acid
measured parameter: RP-LC retention time (s)

In the examples that follow, each entry is paired with its recorded RP-LC retention time.
Exercise: Endpoint output: RP-LC retention time of COc1ccc(C)cc1NC(=O)N1CCC(c2nc(C(=O)N3CCCC3)c(C)o2)CC1 . Value?
Solution: 865

Exercise: Input COc1cc(NC(=O)C2CCN(S(=O)(=O)c3cc(-c4noc(C)n4)cs3)CC2)cc(OC)c1
Solution: 902

Exercise: Thanks! And CCCn1cc2c3c(cccc31)CN(C(=O)COc1ccc(F)cc1)CC2 ?
Solution: 1030

P = CCC1CN2C=NC(N3CCN(C(=O)c4ccc5c(c4)OCO5)CC3)=CC2=N1 (centres undefined)
Q = O=C(NCc1ccc(F)cc1)c1nnc(-c2ccc(S(=O)(=O)N3CCOCC3)cc2)o1
R = O=C(Nc1nc(-c2cc(Cl)sc2Cl)cs1)c1ccc([N+](=O)[O-])s1
Exercise: With regard to RP-LC retention time, arrange the entries in ascending order, please. Put the labels in the requested order and write them down.
Solution: P, Q, R

A = CCC(CC)C(=O)Nc1nc(-c2ccc3c(c2)N(C)C(=O)CO3)cs1
B = COc1ccc(CC(=O)N2CCN(c3cc(C)n4cnnc4n3)CC2)cc1OC
Exercise: Just tell me: smaller RP-LC retention time value, A or B ? I would appreciate it if you answered with the label of your choice.
Solution: B
